# IC50 per entry for PDE4D5 (Homo sapiens)
measurement.kind: IC50 (µM)

Examples from the recorded data:
molecule	IC50 / µM
COc1ccc(Cn2ncc(Cl)c(Cl)c2=O)cc1-c1cccc(Cl)c1 [III-1]	8.32
COc1ccccc1OCCNc1ccc(=O)n(Cc2ccc(OC)c(-c3cccc(Cl)c3)c2)n1 [III-3]	8.48

(I) COc1ccc(Cn2nc(N3CCN(c4ccccc4Cl)CC3)ccc2=O)cc1-c1cccc(Cl)c1 [III-2]
(II) COc1ccc(CN2CCN(c3ccccc3Cl)CC2)cc1-c1cccc(Cl)c1 [II-2]
In: Which value of IC50 is smaller, the one for I or the one for II ? Choose, then provide that item's label.
Out: II
(II: 50.9 µM, I: 110 µM)
